Data provenance: patent EP0542497A1

Target: DHFR (Candida albicans)
Sequence (P22906 1-192): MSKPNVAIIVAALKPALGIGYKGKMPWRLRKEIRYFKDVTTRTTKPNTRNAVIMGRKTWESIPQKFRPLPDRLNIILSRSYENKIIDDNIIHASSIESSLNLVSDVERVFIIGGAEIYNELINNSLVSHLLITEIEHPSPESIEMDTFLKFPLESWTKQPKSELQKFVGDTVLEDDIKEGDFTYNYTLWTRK
Test: biochemical
Settings: C.albicans enzyme; read-out: DHFR I50 C.albicans
assayMetric: IC50 (nM)
API: value field is a number in nM; no unit string.

Solved entries:
{"columns": ["compound", "measurementUnit", "reportedMeasurement"],
 "data": [
  ["CCC(CC)n1c(COC)cc2c3c(N)nc(N)nc3ccc21", "nM", 4.1],
  ["CCCC(C)n1ccc2c3c(N)nc(N)nc3ccc21 (stereo not shown)", "nM", 7],
  ["Nc1nc(N)c2c(ccc3c2ccn3C2CCCCC2)n1", "nM", 3]
]}

Ask | Notebook entry, DHFR (Candida albicans) assay: IC50 of CCCCc1cc2c3c(N)nc(N)nc3ccc2n1C(C)(C)C [Compound 10a] = ?
Reply | 7
